# Test system: SK-N-MC
# assay-summary: Inhibition of iron uptake from transferrin in SK-N-MC cells at 50 uM relative to control
# Type: functional, Homo sapiens
# Design: scale not given: the % may be the effect or the level left
observation-type: Activity (%)
Give bare numbers, in %.

Example entries begin here.
1) Cc1ncc(CO)c(/C=N/NC(=O)c2ccncc2)c1O [PYRIDOXAL ISONICOTINOYL HYDRAZONE]    21
2) NC(=S)N/N=C(\c1cccc([N+](=O)[O-])c1)c1ccccn1    7
3) O=C(N/N=C/c1c(O)ccc2ccccc12)c1ccncc1    9
4) C=CCNC(=S)N/N=C(\c1cccc([N+](=O)[O-])c1)c1ccccn1    11

Please find the next compound below.
Give Activity for the following compound: CNC(=S)N/N=C(\c1cccc([N+](=O)[O-])c1)c1ccccn1
8

----------
# assay-summary: Partition coefficient, log P of the compound
# Format: physicochemical
# experimental-parameters: octanol/water
observation-type: logP
One number for each entry.

Study these solved cases before continuing.
1. S=C(N/N=C(\c1ccccc1)c1ccccn1)Nc1ccccc1    1.92
2. C=CCNC(=S)N/N=C(\c1ccccc1)c1ccccn1    2.69
3. CCNC(=S)N/N=C(\c1cccc([N+](=O)[O-])c1)c1ccccn1    2.53
4. C=CCNC(=S)N/N=C(\c1cccc([N+](=O)[O-])c1)c1ccccn1    1.7
5. CNC(=S)N/N=C(\c1ccccc1)c1ccccn1    0.74
6. NC(=S)N/N=C(\c1ccccc1)c1ccccn1    1.92

Please go through the list and note logP for each compound.
1. CNC(=S)N/N=C(\c1cccc([N+](=O)[O-])c1)c1ccccn1
2. CN(C)C(=S)N/N=C(\c1ccccc1)c1ccccn1
3. CCNC(=S)N/N=C(\c1ccccc1)c1ccccn1
4. NC(=S)N/N=C(\c1cccc([N+](=O)[O-])c1)c1ccccn1

[2.14, 1.29, 4.01, 1.9]

----------
# Tested on: MRC5
# assay-summary: Antiproliferative activity against human MRC5 cells after 72 hrs by MTT assay
# Assay type: cell-based
# experimental-parameters: MRC5, 72 h
observation-type: pIC50
Give bare numbers, as −log10 of the molar value.

Here are 2 compounds together with their reported answers.
1) CCNC(=S)N/N=C(\c1cccc([N+](=O)[O-])c1)c1ccccn1    5.64
2) C=CCNC(=S)N/N=C(\c1cccc([N+](=O)[O-])c1)c1ccccn1    5.62

Now turn to the next compound.
Read the entry S=C(N/N=C(\c1ccccc1)c1ccccn1)Nc1ccccc1 and write its reported pIC50.
5.73
